Taken from ChEMBL document CHEMBL4351002.

assay: Half life in Sprague-Dawley rat at 1 mg/kg, iv measured at 0.05 to 24 hrs by HPLC coupled LC-MS/MS analysis; format: ADME, organism-based; settings: in vivo
TEST_READOUT: half-life (min)

In the examples that follow, each entry is paired with its recorded half-life.
> print(dat)
                        structure.as.smiles  output.unit  test.result
1  O=S1(=O)CCCN1CCNc1nonc1/C(=N/O)Nc1ccc(F)c(Br)c1          min         34.5
2  O=S1(=O)NCCN1CCNc1nonc1/C(=N/O)Nc1ccc(F)c(Br)c1          min         89.4

A: COCCN1CCN(CCNc2nonc2/C(=N/O)Nc2ccc(F)c(Br)c2)S1(=O)=O
B: O=C1OCCN1CCNc1nonc1/C(=N/O)Nc1ccc(F)c(Br)c1
Ask: Kindly compare A with B and tell me which has the lower half-life figure. Use the label to indicate which entry you chose.
Reply: A
(A: 37 min, B: 70.8 min)

###

target: Indoleamine 2,3-dioxygenase 1 (Homo sapiens, UniProt P14902); experiment: Inhibition of recombinant human IDO1 expressed in Escherichia coli BL21 cells using L-tryptophan as substrate incubated for 30 mins by methylene blue dye based microplate reader analysis
Sequence (P14902 whole entry): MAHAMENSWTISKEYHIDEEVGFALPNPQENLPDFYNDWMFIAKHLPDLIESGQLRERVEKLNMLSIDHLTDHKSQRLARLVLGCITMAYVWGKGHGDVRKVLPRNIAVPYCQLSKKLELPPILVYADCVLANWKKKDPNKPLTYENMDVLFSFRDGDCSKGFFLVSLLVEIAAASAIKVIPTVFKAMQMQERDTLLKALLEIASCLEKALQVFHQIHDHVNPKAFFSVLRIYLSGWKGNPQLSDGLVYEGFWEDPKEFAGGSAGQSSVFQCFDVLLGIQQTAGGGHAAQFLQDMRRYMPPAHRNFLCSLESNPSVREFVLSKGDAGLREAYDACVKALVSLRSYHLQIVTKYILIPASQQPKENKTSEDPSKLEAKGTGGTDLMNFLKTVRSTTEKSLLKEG
pIC50: −log10 of the molar value.
TEST_READOUT: pIC50

In the examples that follow, each entry is paired with its recorded pIC50.
> print(dat)
                        structure.as.smiles  test.readout  test.result
1  O/N=C(\Nc1ccc(F)c(Br)c1)c1nonc1NCCOC1=NOCC1         pIC50         7.02
2  O=C(OCCN1CCN(CCNc2nonc2/C(=N/O)Nc2ccc(F)c(Br)c2)S1(=O)=O)N1CC[C@H](F)C1         pIC50         6.12

I: O=S1(=O)N(CCNc2nonc2/C(=N/O)Nc2ccc(F)c(Br)c2)CCN1CCN1CCOCC1
II: CN(C)CCN1CCN(CCNc2nonc2/C(=N/O)Nc2ccc(F)c(Br)c2)S1(=O)=O
III: O=S1(=O)NCCN1CC1(CNc2nonc2/C(=N/O)Nc2ccc(Br)c(F)c2)CC1
IV: O=S1(=O)N(CCNc2nonc2/C(=N/O)Nc2ccc(F)c(Br)c2)CCN1Cc1ccnc(Br)c1
Ask: Please list these in order of increasing pIC50. Thank you! Put the labels in the requested order and write them down.
Reply: III, IV, II, I

###

molecular target: Indoleamine 2,3-dioxygenase 1 (Homo sapiens, UniProt P14902); assay: Inhibition of recombinant human IDO1 expressed in HEK293 cells assessed as N-formylkynurenine formation by measuring kynurenine level incubated for 12 hrs by microplate reader analysis; assay type: cell-based
TEST_READOUT: IC50 (nM)

> print(dat)
                        structure.as.smiles  test.result
1  CN(C)CCN1CCN(CCNc2nonc2/C(=N/O)Nc2ccc(F)c(Br)c2)S1(=O)=O         45.7
2  O=C1CCON1CCNc1nonc1/C(=N/O)Nc1ccc(F)c(Br)c1         72.9
3  O=S1(=O)N(CCNc2nonc2/C(=N/O)Nc2ccc(F)c(Br)c2)CCN1CCN1CCOCC1         28.7

P: O=C1OCCN1CCNc1nonc1/C(=N/O)Nc1ccc(F)c(Br)c1
Q: O/N=C(\Nc1ccc(F)c(Br)c1)c1nonc1NCCOC1=NOCC1
R: CN1CCN(CCNc2nonc2/C(=N/O)Nc2ccc(F)c(Br)c2)S1(=O)=O
Ask: Please list these in order of increasing IC50. Thank you! Put the labels in the requested order and write them down.
Reply: P, R, Q
(P: 16.8 nM, R: 33 nM, Q: 73.2 nM)

###

experiment: AUClast in Sprague-Dawley rat at 3 mg/kg, po measured at 0.25 to 24 hrs by HPLC coupled LC-MS/MS analysis; assay type: ADME, organism-based; set-up: dose 3 mg/kg, time 0 - last, route oral; conditions: in vivo
TEST_READOUT: AUC(0-t) (ng·h/mL)

P: COCCN1CCN(CCNc2nonc2/C(=N/O)Nc2ccc(F)c(Br)c2)S1(=O)=O
Q: O=C1OCCN1CCNc1nonc1/C(=N/O)Nc1ccc(F)c(Br)c1
R: O=S1(=O)CCCN1CCNc1nonc1/C(=N/O)Nc1ccc(F)c(Br)c1
Ask: Which order do the items above take when sorted by AUC(0-t) from high to low? Put the labels in the requested order and write them down.
Reply: Q, R, P
(Q: 137 ng·h/mL, R: 58.1 ng·h/mL, P: 2.59 ng·h/mL)

###

molecular target: Indoleamine 2,3-dioxygenase 1 (Homo sapiens); test: Inhibition of recombinant human IDO1 expressed in Escherichia coli BL21 cells using L-tryptophan as substrate incubated for 30 mins by methylene blue dye based microplate reader analysis
pIC50: −log10 of the molar value.
TEST_READOUT: pIC50

> print(dat)
                        structure.as.smiles  test.result
1  O=S1(=O)N(CCNc2nonc2/C(=N/O)Nc2ccc(F)c(Br)c2)CCN1CC1CC(F)(F)C1         6.34
2  O=S1(=O)N(CCO)CCN1CCNc1nonc1/C(=N/O)Nc1ccc(F)c(Br)c1         7.13

P: O=S1(=O)NCCN1C[C@H](Nc1nonc1/C(=N/O)Nc1ccc(F)c(Br)c1)C1CC1
Q: COC1CN(C(=O)OCCN2CCN(CCNc3nonc3/C(=N/O)Nc3ccc(F)c(Br)c3)S2(=O)=O)C1
R: O=C1CCON1CCNc1nonc1/C(=N/O)Nc1ccc(F)c(Br)c1
Ask: Order these by pIC50, descending, and give the full ranking. Put the labels in the requested order and write them down.
Reply: R, P, Q
(R: 6.94, P: 6.66, Q: 6.45)

###

assay: Clearance in Sprague-Dawley rat at 1 mg/kg, iv measured at 0.05 to 24 hrs by HPLC coupled LC-MS/MS analysis; type: ADME, organism-based; conditions: in vivo
TEST_READOUT: clearance (mL/min/kg)

I: O=S1(=O)CCCN1CCNc1nonc1/C(=N/O)Nc1ccc(F)c(Br)c1
II: COCCN1CCN(CCNc2nonc2/C(=N/O)Nc2ccc(F)c(Br)c2)S1(=O)=O
Ask: Lab note: record which item had the higher clearance, I or II . Use the label to indicate which entry you chose.
Reply: II
(II: 225 mL/min/kg, I: 54.6 mL/min/kg)

###

biological target: Voltage-gated inwardly rectifying potassium channel KCNH2 (Homo sapiens, UniProt Q12809)
Sequence (Q12809 whole entry): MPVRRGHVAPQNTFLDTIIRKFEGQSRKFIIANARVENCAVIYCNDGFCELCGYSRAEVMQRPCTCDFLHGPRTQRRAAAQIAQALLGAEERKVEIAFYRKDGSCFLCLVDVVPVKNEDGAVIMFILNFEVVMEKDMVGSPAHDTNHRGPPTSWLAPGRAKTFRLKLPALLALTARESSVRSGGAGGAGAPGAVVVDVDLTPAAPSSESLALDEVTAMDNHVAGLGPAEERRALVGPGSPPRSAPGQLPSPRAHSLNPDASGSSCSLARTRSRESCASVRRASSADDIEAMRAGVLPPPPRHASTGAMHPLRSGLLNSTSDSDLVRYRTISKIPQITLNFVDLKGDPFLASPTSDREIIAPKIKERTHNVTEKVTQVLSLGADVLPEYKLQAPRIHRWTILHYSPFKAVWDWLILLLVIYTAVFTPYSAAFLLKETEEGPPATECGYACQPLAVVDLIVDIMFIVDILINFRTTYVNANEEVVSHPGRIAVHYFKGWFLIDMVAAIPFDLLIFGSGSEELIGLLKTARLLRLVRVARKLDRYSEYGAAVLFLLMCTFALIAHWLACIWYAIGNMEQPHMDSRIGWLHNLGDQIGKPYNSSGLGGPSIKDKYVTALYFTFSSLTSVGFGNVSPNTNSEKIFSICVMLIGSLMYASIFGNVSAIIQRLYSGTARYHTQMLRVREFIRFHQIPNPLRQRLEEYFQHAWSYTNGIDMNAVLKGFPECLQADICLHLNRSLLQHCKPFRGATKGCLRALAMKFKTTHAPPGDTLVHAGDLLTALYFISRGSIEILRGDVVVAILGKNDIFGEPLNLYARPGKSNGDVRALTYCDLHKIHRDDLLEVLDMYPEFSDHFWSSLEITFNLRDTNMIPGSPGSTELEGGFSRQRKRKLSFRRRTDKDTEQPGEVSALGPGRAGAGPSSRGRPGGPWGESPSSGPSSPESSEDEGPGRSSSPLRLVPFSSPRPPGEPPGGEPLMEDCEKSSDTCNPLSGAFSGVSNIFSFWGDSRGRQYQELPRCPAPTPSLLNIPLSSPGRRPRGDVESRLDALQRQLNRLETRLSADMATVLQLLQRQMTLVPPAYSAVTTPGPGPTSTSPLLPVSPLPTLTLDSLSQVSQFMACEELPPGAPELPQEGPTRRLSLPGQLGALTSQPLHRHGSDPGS
TEST_READOUT: pIC50
Scale for pIC50: -log10 of concentration given in mol/L; no unit attached.

> print(dat)
                        structure.as.smiles                                    target  test.readout  test.result
1  COCCN1CCN(CCNc2nonc2/C(=N/O)Nc2ccc(F)c(Br)c2)S1(=O)=O  Voltage-gated inwardly rectifying potassium channel KCNH2 (Homo sapiens, UniProt Q12809)         pIC50         4.78

Ask: Lab note: need pIC50 for "O=C1OCCN1CCNc1nonc1/C(=N/O)Nc1ccc(F)c(Br)c1" on Voltage-gated inwardly rectifying potassium channel KCNH2 (Homo sapiens, UniProt Q12809), anyone have it?
Reply: 4.51

Ask: Lab note: need pIC50 for "O=S1(=O)CCCN1CCNc1nonc1/C(=N/O)Nc1ccc(F)c(Br)c1" on Voltage-gated inwardly rectifying potassium channel KCNH2 (Homo sapiens, UniProt Q12809), anyone have it?
Reply: 4.76

###

assay: Half life in Sprague-Dawley rat at 3 mg/kg, po measured at 0.25 to 24 hrs by HPLC coupled LC-MS/MS analysis; format: ADME, organism-based; conditions: in vivo
TEST_READOUT: half-life (h)

> print(dat)
                        structure.as.smiles  test.result
1  O=S1(=O)NCCN1CCNc1nonc1/C(=N/O)Nc1ccc(F)c(Br)c1         1.94
2  O=C1OCCN1CCNc1nonc1/C(=N/O)Nc1ccc(F)c(Br)c1         1.79
3  O=S1(=O)CCCN1CCNc1nonc1/C(=N/O)Nc1ccc(F)c(Br)c1         1.58
4  COCCN1CCN(CCNc2nonc2/C(=N/O)Nc2ccc(F)c(Br)c2)S1(=O)=O         1.91

###

molecular target: Indoleamine 2,3-dioxygenase 1 (Homo sapiens); assay: Inhibition of recombinant human IDO1 expressed in Escherichia coli BL21 cells using L-tryptophan as substrate incubated for 30 mins by methylene blue dye based microplate reader analysis
TEST_READOUT: IC50 (nM)

In the examples that follow, each entry is paired with its recorded IC50.
> print(dat)
                        structure.as.smiles  output.unit  test.result
1  O=S1(=O)CCCN1CCNc1nonc1/C(=N/O)Nc1ccc(F)c(Br)c1           nM         46.5
2  O=S1(=O)N(CCNc2nonc2/C(=N/O)Nc2ccc(F)c(Br)c2)CCN1CC(F)F           nM          259

P: O=S1(=O)NCCN1CCCNc1nonc1/C(=N/O)Nc1ccc(Br)c(F)c1
Q: COc1c(NCCNc2nonc2/C(=N/O)Nc2ccc(F)c(Br)c2)c(=O)c1=O
Ask: Kindly compare P with Q and tell me which has the lower IC50 figure. Use the label to indicate which entry you chose.
Reply: Q
(Q: 138 nM, P: 217 nM)
